Tested on: A498 renal
Assay: NCI tumour cell line growth inhibition, 48 h
Given measured TGI, output met if it is greater than or equal to 30 µM and not met if not.

{"columns": ["compound", "cat"],
 "data": [
  ["C[C@]12CCC3c4ccc(OC(=O)c5ccccc5)cc4CC[C@H]3C1CC[C@@H]2OC(=O)C12OC1CCC2=O (stereo partly specified)", "not met"],
  ["CC(N)Cc1cccc(C(F)(F)F)c1 (stereo unspecified)", "met"],
  ["Oc1c(Br)cc(Br)cc1CN(Cc1cc(Br)cc(Br)c1O)C1CCCCC1", "met"],
  ["Nc1ccccc1NC(=O)c1ccc(CSc2nc(N3CCOCC3)c3cccn3n2)cc1", "not met"],
  ["Nn1c(CCCl)nc2c(Br)cc(Br)cc2c1=O", "met"],
  ["O=C(NO)c1cccc(OCc2ccc(Br)cc2)c1", "met"],
  ["O=C1CC2[C@@H](N3CCCC3)CCC(N1Cc1ccccc1)C2(O)O (stereo partly specified)", "met"],
  ["CC1(C)CC23C(=O)N(c4ccccc4)C(=Nc4ccccc4)NC2=CC(C#N)=C(C#N)C3O1 (stereo unspecified)", "met"],
  ["C#C[C@@]1(O)[C@@H](CO)O[C@@H](n2cc(Cl)c3c(N)ncnc32)[C@@H]1O", "not met"],
  ["CCOC(=O)[C@H](CSSc1ncnc2cc[nH]c12)NC(=O)[C@@H](C)c1ccc2cc(OC)ccc2c1", "met"],
  ["C/C(=C\\c1ccn(-c2ccc(N)c(C(F)(F)F)c2)n1)[C@@H]1C[C@@H]2O[C@]2(C)CCC[C@H](C)[C@H](O)[C@@H](C)C(=O)C(C)(C)[C@@H](O)CC(=O)O1", "not met"]
]}

* * *

Reported TGI by item:
System: UACC-62 melanoma
Assay: NCI tumour cell line growth inhibition, 48 h

{"columns": ["compound", "TGI"],
 "data": [
  ["CCOC(=O)C(NNS(=O)(=O)c1ccc(C)cc1)S(=O)(=O)C(F)(F)C(F)(F)C(F)(F)C(F)(F)F (stereo unspecified)", "> 100 µM"],
  ["CCOC(=O)/C(C#N)=C(/NS(=O)(=O)c1cc(C)c(Cl)cc1[S-])[n+]1ccc(N(C)C)cc1", "> 100 µM"],
  ["COc1ccc2cc(C(=O)c3ccccc3C(=O)O)ccc2c1", "> 100 µM"],
  ["CC(=O)CC(=O)N(CCN(C(=O)CC(C)=O)c1ccccc1)c1ccccc1", "> 100 µM"],
  ["COC1Cc2c(C)c(OC(C)=O)c3cccnc3c2O1 (stereo unspecified)", "29 µM"],
  ["O=C(O)C(=O)Cc1ccc2c(c1)OCO2", "> 100 µM"]
]}

* * *

System: DU-145 prostate
Assay: NCI tumour cell line growth inhibition, 48 h

{"columns": ["compound", "result_unit", "value_operator", "TGI"],
 "data": [
  ["COC(=O)c1cc(C#N)[nH]c1-c1ccsc1", "µM", ">", 100],
  ["COc1cc2c(c(OC)c1OC)-c1ccc([O-])c(=O)cc1[C@@H](NC(C)=O)CC2.COc1cc2c(c(OC)c1OC)-c1ccc([O-])c(=O)cc1[C@@H](NC(C)=O)CC2.[Cu+2]", "µM", "=", 7.21],
  ["C=C(C)C(=O)NC(N)=NC#N", "µM", "=", 291],
  ["CC1CCCOc2ccc(cc2)C=Nc2ccc(cc2)CCc2ccc(cc2)N=Cc2ccc(cc2)OCCC1 (centres undefined)", "µM", ">", 100],
  ["CCCCCCN(CCCCCC)C(=N)c1ccnc2ccccc12", "µM", "=", 26.6],
  ["O=C1O/C(=C\\c2ccc(O)c(Br)c2)C(c2ccc(O)cc2)=C1Cl", "µM", ">", 100],
  ["COC(=O)[C@@H]1O[C@]12C(CO[Si](C)(C)C(C)(C)C)OC(n1ccc(=O)[nH]c1=O)C2O[Si](C)(C)C(C)(C)C (some centres undefined)", "µM", "=", 61.1],
  ["CCc1cc(-c2nsc(=O)o2)c(S(=O)(=O)CC)s1", "µM", ">", 100],
  ["CCOC(=O)c1ccc2c(c1)nc1n2C(c2c(F)cccc2F)SC1 (centres undefined)", "µM", ">", 100]
]}

* * *

System: K-562 leukemia
Assay: NCI tumour cell line growth inhibition, 48 h
The reader will find reported TGI values listed item by item below.

{"columns": ["molecule", "TGI"],
 "data": [
  ["Cc1cc(Cl)ccc1Nc1sc(C(=O)c2cc3cc(Cl)ccc3o2)c(N)c1C#N", "> 100 µM"],
  ["O=C1C2CC3C(CC2C(=O)[N]1[Sn]([c]1ccccc1)([c]1ccccc1)[c]1ccccc1)C1(Cl)C(Cl)=C(Cl)C3(Cl)C1(Cl)Cl (centres undefined)", "0.754 µM"],
  ["O=C1CC2[C@@H](N3CCCC3)CCC(N1Cc1ccccc1)C2(O)O (some centres undefined)", "> 100 µM"],
  ["COC(=O)[C@H](CCSC)NC(=O)c1ccc(CNC(=O)/C=C/c2cccc(Oc3ccccc3)c2)cc1", "> 78.8 µM"],
  ["CC(=O)O[C@H]1CC[C@H]2[C@@H]3CCc4cc(O)c(I)cc4[C@H]3CC[C@]12C", "> 100 µM"],
  ["C#C[C@@]1(O)[C@@H](CO)O[C@@H](n2cc(Cl)c3c(N)ncnc32)[C@@H]1O", "> 100 µM"],
  ["CCCCCCCCCCCCCCCCC1=CC(=O)C=C(OC)C1=O", "> 100 µM"],
  ["COc1cc(N2CCC(N3CCN(C)CC3)CC2)ccc1Nc1ncc(Cl)c(Nc2ccccc2P(C)(C)=O)n1", "> 100 µM"],
  ["C[C@]12CCC3c4ccc(OC(=O)c5ccccc5)cc4CC[C@H]3C1CC[C@@H]2OC(=O)C12OC1CCC2=O (some centres undefined)", "5.06 µM"],
  ["CC(C#N)c1cn(S(=O)(=O)c2ccccc2)c2ccccc12 (centres undefined)", "> 100 µM"],
  ["O=C(NO)c1cccc(OCc2ccc(Br)cc2)c1", "> 47.5 µM"],
  ["CCC1CCc2nc3sc(C(=O)Nc4ccccc4F)c(N)c3cc2C1 (centres undefined)", "> 100 µM"],
  ["COc1cc(C(=O)C/C(CCC(=O)Nc2ccccc2[N+](=O)[O-])=N\\NC(=O)C(N)=O)ccc1O", "> 100 µM"],
  ["Cc1cc(C)c2c(=O)cc(-c3ccc(Cl)cc3)[nH]c2n1", "> 71.4 µM"],
  ["CN1CCN(C(=O)c2ccc(NC(=O)Nc3ccc(N(C)c4ccnc(Nc5ccc(CS(C)(=O)=O)cc5)n4)cc3)cc2)CC1", "> 25 µM"],
  ["C[C@H]1CCC/C=C/[C@@H]2C[C@H](O)C[C@H]2[C@H](O)[C@H](S(=O)c2ccc(O)cc2)CC(=O)O1 (some centres undefined)", "> 100 µM"],
  ["CS(=O)(=O)c1nc(N)nc2nc[nH]c12", "> 100 µM"],
  ["COC(=O)C1=CC(O)CCC1c1ccc(OC)cc1 (centres undefined)", "> 100 µM"],
  ["CCOC(=O)C1C(=O)CC(C)(O)C(C(=O)OCC)C1c1ccc(N(C)C)cc1 (centres undefined)", "> 100 µM"]
]}

* * *

System: HOP-62 NSCLC
Assay: NCI tumour cell line growth inhibition, 48 h; in the data active = GI50 below about 0.43 µM; inactive = the rest
Outcomes: 1 (yes) = active, 0 (no) = inactive

{"columns": ["molecule", "cat"],
 "data": [
  ["CCN(Cc1ccc(F)cc1)c1ccc(CO)c(Cl)c1", "0 (no)"],
  ["CC(=O)O[C@H](C[C@H](C(C)C)N(C)C(=O)[C@@H](NC(=O)[C@H]1CCCCN1C)C(C)C)c1nc(C(=O)N[C@@H](Cc2ccccc2)C[C@H](C)C(=O)O)c(C)s1", "1 (yes)"],
  ["CC(=O)[CH-]C(=O)c1ccccc1.CC(=O)[CH-]C(=O)c1ccccc1.O=C([O-])C[O-].O=C([O-])C[O-].[Ti+4]", "0 (no)"],
  ["Cc1ccc(-c2csc(N(C(=O)N3CCN(c4cc5c(cc4F)c(=O)c(C(=O)O)cn5C4CC4)CC3)c3ccccc3)n2)cc1", "1 (yes)"],
  ["CCC[CH2][Sn]1([CH2]CCC)[O]C(c2ccccn2)S(=O)(=O)[O]1 (configuration not stated)", "0 (no)"],
  ["CC[O-].CC[O-].[O-]c1ccccc1C=Nc1ccccc1.[O-]c1ccccc1C=Nc1ccccc1.[Ti+4]", "0 (no)"],
  ["Nc1ncc(-c2cnn(C3CCNCC3)c2)cc1-c1nc2ccccc2o1", "0 (no)"]
]}

* * *

Measured TGI of individual entries
System: DMS 273 small cell lung
Assay: NCI tumour cell line growth inhibition, 48 h
reported_property: TGI

{"columns": ["molecule", "value_measured"],
 "data": [
  ["COc1ccc2cc(C(=O)c3ccccc3C(=O)O)ccc2c1", "> 100 µM"],
  ["CCCCCCCCCOC(=S)NC", "33.6 µM"],
  ["Cc1cc(C)c(C(=O)O)c(N)c1O", "> 100 µM"],
  ["CCOC(=O)C12CCCC1(O)N(NC(=O)c1cccc(Cl)c1)C(C)=C2C(=O)OC (stereo unspecified)", "> 100 µM"],
  ["C/C(CC(=O)CCCC(=O)Nc1ccc(Cl)cc1Cl)=N/NC(=O)CC#N", "> 100 µM"],
  ["O=C1c2ccccc2C(=O)N1/N=C\\c1ccc(Br)cc1", "> 100 µM"]
]}
